- Procedure Text: melting temperature; fluorescence melt of hairpins on a sequencing array, two-state fit, raised by 9.35 °C to match UV melts
- Condition Description: sodium 0.088 M
Parameter Tm: see the listing below.
State the answer as a number, implicitly in °C.

Sample records with Tm:
GTGTTTGGAAACAAGCAC (((.(((....))).))) ... 46.6
GATCTCTATAGAGATC ((((((....)))))) ... 55

I would be grateful if you could share the reported Tm for GCATCAGGAAACTGATGC (((((((....))))))) .
67.1

====

- Procedure Text: folding enthalpy; higher = less favourable; fluorescence melt of hairpins on a sequencing array, two-state fit
- Condition Description: sodium 0.088 M
Outcome: T for folding enthalpy of at least -10 kcal/mol; F for anything lower.

Consider the worked cases shown below.
GGTCGATCGAAAGATACC (((..(((....)))))) ... T
GTCACTCGAAAGAGGGAC (((.(((....))).))) ... F
GCCACAGGAAACTACGGC (((..((....))..))) ... F

Identify whether the reported folding enthalpy of the following sequence is -10 kcal/mol or greater: GTGGAAGGAAACTTCTGC (..((((....))))..)
F

Identify whether the reported folding enthalpy of the following sequence is -10 kcal/mol or greater: GATATACGAAAGTAAATC (((.(((....))).)))
F

Identify whether the reported folding enthalpy of the following sequence is -10 kcal/mol or greater: GCAAGGAAACTTGC (((((....)))))
F

Identify whether the reported folding enthalpy of the following sequence is -10 kcal/mol or greater: GTCATTGAAAAATGAC ((((((....))))))
F

Identify whether the reported folding enthalpy of the following sequence is -10 kcal/mol or greater: GTAGCGCGAAAGCGTAC (((.(((....))))))
F

Identify whether the reported folding enthalpy of the following sequence is -10 kcal/mol or greater: GGTTGCGGAAACGTGACC (((..((....))..)))
F

Identify whether the reported folding enthalpy of the following sequence is -10 kcal/mol or greater: CGGTCGGAAACGAATCCG ((((((....)))..)))
F

Identify whether the reported folding enthalpy of the following sequence is -10 kcal/mol or greater: GCGGAGCGAAAGCCTCGC (((..((....))..)))
F

Identify whether the reported folding enthalpy of the following sequence is -10 kcal/mol or greater: GAAAGCGCGAAAGCGTTC (((..(((....))))))
T

Identify whether the reported folding enthalpy of the following sequence is -10 kcal/mol or greater: GCCAGAGCGAAAGCTGGC (((..(((....))))))
F

Identify whether the reported folding enthalpy of the following sequence is -10 kcal/mol or greater: GCCAAGCGAAAGCCTCGC ((.(.((....)).).))
T

Identify whether the reported folding enthalpy of the following sequence is -10 kcal/mol or greater: GTATAGCCGAAAGGCTAC (((..(((....))))))
T

Identify whether the reported folding enthalpy of the following sequence is -10 kcal/mol or greater: GAGTGCGGAAACGTGCTC (((..((....))..)))
F

Identify whether the reported folding enthalpy of the following sequence is -10 kcal/mol or greater: GCTACGCGAAAGCGATGC ((..(((....)))..))
F

====

Parameter folding enthalpy: see the listing below.
- Procedure Text: folding enthalpy; higher = less favourable; fluorescence melt of hairpins on a sequencing array, two-state fit
- Condition Description: sodium 0.088 M
State the answer as a number, implicitly in kJ/mol.

GCAGGTGGAAACATCTGC ((((.((....)).)))) ... -158

I would be grateful if you could share the reported folding enthalpy for GAGAGCGAAAGCTTTCTC ((((((....)))..))) .
-89.7

I would be grateful if you could share the reported folding enthalpy for GTGTCTGGAAACAGATAC ((.((((....)))).)) .
-159

====

- Procedure Text: melting temperature; fluorescence melt of hairpins on a sequencing array, two-state fit, raised by 9.35 °C to match UV melts
- Condition Description: sodium 0.088 M
Recorded Metric: Tm (°C)
State the answer as a number, implicitly in °C.

GTGGACGAAAGTCGGCAC ((((((....)))..))) ... 39.8
GAGGTAGGAAACTGCCTC ((((.((....)).)))) ... 49.9
GGCACCGGAAACGACGCC (((..((....))..))) ... 42

I would be grateful if you could share the reported Tm for GATCAGGCTCCTGATC ((((((....)))))) .
52.5

I would be grateful if you could share the reported Tm for GCTGTGGGAAACCATAGC (((.(((....))).))) .
50

I would be grateful if you could share the reported Tm for GATCGATCTTCGATC ((((((...)))))) .
52.5

I would be grateful if you could share the reported Tm for GTTCAACGAAAGTTTAAC (((.(((....))).))) .
35.2

====

- Procedure Text: folding enthalpy; higher = less favourable; fluorescence melt of hairpins on a sequencing array, two-state fit
- Condition Description: sodium 0.088 M
# binning rule on folding enthalpy: low value (below -30 kcal/mol), medium value (-30 kcal/mol to below -20 kcal/mol), high value (-20 kcal/mol or more)

Consider the worked cases shown below.
GCTTTGACGAAAGTCAGC (((..(((....)))))) ... high value
GCGGGTGGAAACACTCGC (((.(((....))).))) ... low value
GATCAAATGTTTGATC ((((((....)))))) ... low value
GCCCCCGAAAGGGTTGGC ((((((....)))..))) ... high value
GATCCCGGTTGGGATC ((((((....)))))) ... low value

Which bin, given its folding enthalpy, does GTCACAACGAAAGTTGAC (((..(((....)))))) occupy?
high value

Which bin, given its folding enthalpy, does GTAGTGGGAAACTGCTAC ((((..(....)..)))) occupy?
medium value

Which bin, given its folding enthalpy, does GCGCGGCGAAAGCCTTGC ((..(((....)))..)) occupy?
high value

Which bin, given its folding enthalpy, does GGAAAACGAAAGTTCTCC (((.(((....))).))) occupy?
medium value

Which bin, given its folding enthalpy, does GATCCGCGCACGGATC ((((((....)))))) occupy?
low value

Which bin, given its folding enthalpy, does CGCCACGGAAACGTGCG (((.(((....)))))) occupy?
medium value

====

- Procedure Text: folding enthalpy; higher = less favourable; fluorescence melt of hairpins on a sequencing array, two-state fit
- Condition Description: sodium 0.088 M
Outcome: MET for folding enthalpy of at least -20 kcal/mol; NOT MET for anything lower.

GGTCCCGAAAGGGAGACC ((((((....)))..))) ... MET
GTAAGGCGAAAGCCTAC (((.(((....)))))) ... MET
GGCGTCGAAAGACCTGCC ((((((....)))..))) ... MET

Identify whether the reported folding enthalpy of the following sequence is -20 kcal/mol or greater: GGCAGTGGAAACGCTGCC (((((.(....).)))))
NOT MET

Identify whether the reported folding enthalpy of the following sequence is -20 kcal/mol or greater: GATCGCATCCGCGATC ((((((....))))))
NOT MET

Identify whether the reported folding enthalpy of the following sequence is -20 kcal/mol or greater: GATGAGGGAAACCTCACC (.(((((....))))).)
MET

Identify whether the reported folding enthalpy of the following sequence is -20 kcal/mol or greater: GCTATGCGAAAGCCGAGC (((..((....))..)))
MET

Identify whether the reported folding enthalpy of the following sequence is -20 kcal/mol or greater: GGTACCGAAAGGTTGACC ((((((....)))..)))
MET

Identify whether the reported folding enthalpy of the following sequence is -20 kcal/mol or greater: GACAGGGGAAACCCCATC ((..(((....)))..))
MET

Identify whether the reported folding enthalpy of the following sequence is -20 kcal/mol or greater: GACCCGCGAAAGCGGTC (((.(((....))))))
MET

Identify whether the reported folding enthalpy of the following sequence is -20 kcal/mol or greater: GGAAAAGGAAACTTTTCC (((((((....)))))))
NOT MET

Identify whether the reported folding enthalpy of the following sequence is -20 kcal/mol or greater: GCGAATGCGAAAGCACGC (((..(((....))))))
MET

====

- Procedure Text: melting temperature; fluorescence melt of hairpins on a sequencing array, two-state fit, raised by 9.35 °C to match UV melts
- Condition Description: sodium 0.088 M
Cut-off 50 °C on Tm: below means Condition met, at or above means Condition not met.

Consider the worked cases shown below.
GGTCCTGGAAACGGGATC (.(((.(....).))).) ... Condition met
GCCGTGCGAAAGCCCAGC ((.(.((....)).).)) ... Condition met
GCGATCGAAAGATAGCGC ((((((....)))..))) ... Condition not met
CTAACTGAAAAGTTAG ((((((....)))))) ... Condition met
GGGCTGCGAAAGCATCCC (((.(((....))).))) ... Condition not met
GACCACGAAAGTGGGTC ((((((....))).))) ... Condition not met

Hello, I'm reviewing records and need to know if Tm of GTTCCGCGAAAGCGTAAC (((.(((....))).))) is below 50 °C. Could you check?
Condition met

Hello, I'm reviewing records and need to know if Tm of GTGGAAGGAAACTCCCAC ((((.((....)).)))) is below 50 °C. Could you check?
Condition met

All figures here come from the array DNA melting data of Ke et al. (doi:10.1101/2024.01.08.574731).
